B1: PhoQ; a variant is named by its letters at X, in order, P23837 (parent)
chain: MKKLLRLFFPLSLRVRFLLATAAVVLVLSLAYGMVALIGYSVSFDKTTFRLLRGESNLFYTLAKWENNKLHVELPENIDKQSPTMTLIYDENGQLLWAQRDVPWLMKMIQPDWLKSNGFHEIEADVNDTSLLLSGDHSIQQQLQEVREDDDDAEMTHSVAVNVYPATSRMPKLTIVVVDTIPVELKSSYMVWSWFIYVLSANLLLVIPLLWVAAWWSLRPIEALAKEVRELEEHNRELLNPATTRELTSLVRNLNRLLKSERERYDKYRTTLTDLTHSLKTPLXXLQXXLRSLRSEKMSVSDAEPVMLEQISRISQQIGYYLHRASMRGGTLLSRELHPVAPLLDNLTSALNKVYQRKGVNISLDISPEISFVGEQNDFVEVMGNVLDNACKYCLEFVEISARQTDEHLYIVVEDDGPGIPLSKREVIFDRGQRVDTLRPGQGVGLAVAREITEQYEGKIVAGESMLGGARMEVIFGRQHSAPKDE

- Variants of: B1
- method.notes: enrichment ratio after two sorts for PhoP signalling (ratio (wild type AVST 3.29)); higher = more functional
- run.parameters: with PhoP (E. coli)
Over roughly 140,000 sequences, “enrichment ratio after two sorts for PhoP signalling” has its median near 0; the highest 2% begin near 11. Many of the other results were omitted from the sample, so the highest values are more common in it than they were.
test.readout: enrichment ratio

mut=AQSS test_readout="enrichment ratio" measurement=11.7
mut=AVHP test_readout="enrichment ratio" measurement="≤ 0.25"
mut=TNMS test_readout="enrichment ratio" measurement=4.8
mut=VLVI test_readout="enrichment ratio" measurement="≤ 0.25"
mut=KVQS test_readout="enrichment ratio" measurement="≤ 0.25"
mut=WVYV test_readout="enrichment ratio" measurement="≤ 0.25"
mut=AIVE test_readout="enrichment ratio" measurement=12.3
mut=AVFQ test_readout="enrichment ratio" measurement="≤ 0.25"
mut=FDYF test_readout="enrichment ratio" measurement="≤ 0.25"
mut=MAYK test_readout="enrichment ratio" measurement="≤ 0.25"
mut=HKRT test_readout="enrichment ratio" measurement="≤ 0.25"
mut=GDCG test_readout="enrichment ratio" measurement="≤ 0.25"
mut=AMVI test_readout="enrichment ratio" measurement=16.3
mut=MGTS test_readout="enrichment ratio" measurement="≤ 0.25"
mut=GLLL test_readout="enrichment ratio" measurement=11.7
mut=MGDH test_readout="enrichment ratio" measurement="≤ 0.25"
mut=AKAF test_readout="enrichment ratio" measurement=5.84
mut=MAYV test_readout="enrichment ratio" measurement=15.4
mut=ANSS test_readout="enrichment ratio" measurement=12.7
mut=TNDC test_readout="enrichment ratio" measurement="≤ 0.25"
mut=TYTC test_readout="enrichment ratio" measurement="≤ 0.25"
mut=LCCT test_readout="enrichment ratio" measurement="≤ 0.25"
mut=RCTL test_readout="enrichment ratio" measurement="≤ 0.25"
mut=QNMD test_readout="enrichment ratio" measurement="≤ 0.25"
mut=AVWI test_readout="enrichment ratio" measurement="≤ 0.25"
mut=AKTK test_readout="enrichment ratio" measurement="≤ 0.25"
mut=HFMM test_readout="enrichment ratio" measurement="≤ 0.25"
mut=KTLD test_readout="enrichment ratio" measurement="≤ 0.25"
mut=LWTN test_readout="enrichment ratio" measurement="≤ 0.25"
mut=KRKW test_readout="enrichment ratio" measurement="≤ 0.25"
mut=GFAI test_readout="enrichment ratio" measurement="≤ 0.25"
mut=EQVS test_readout="enrichment ratio" measurement="≤ 0.25"
mut=RGMG test_readout="enrichment ratio" measurement="≤ 0.25"
mut=NPNK test_readout="enrichment ratio" measurement="≤ 0.25"
mut=NAYV test_readout="enrichment ratio" measurement="≤ 0.25"
mut=RIVE test_readout="enrichment ratio" measurement="≤ 0.25"
mut=NMVQ test_readout="enrichment ratio" measurement="≤ 0.25"
mut=AVTC test_readout="enrichment ratio" measurement=6.81
mut=SQAF test_readout="enrichment ratio" measurement=3.99
mut=MGMM test_readout="enrichment ratio" measurement=37.6
mut=KFKF test_readout="enrichment ratio" measurement="≤ 0.25"
mut=NGSS test_readout="enrichment ratio" measurement="≤ 0.25"
mut=AVMI test_readout="enrichment ratio" measurement=15.6
mut=MGTA test_readout="enrichment ratio" measurement="≤ 0.25"
mut=AVPS test_readout="enrichment ratio" measurement="≤ 0.25"
mut=SIAF test_readout="enrichment ratio" measurement=15.1
mut=AKTC test_readout="enrichment ratio" measurement=30.2
mut=SELL test_readout="enrichment ratio" measurement=16.3
mut=MGTC test_readout="enrichment ratio" measurement=0.695
mut=ITLL test_readout="enrichment ratio" measurement=7.22
mut=TNIV test_readout="enrichment ratio" measurement="≤ 0.25"
mut=LQVN test_readout="enrichment ratio" measurement="≤ 0.25"
mut=NMVI test_readout="enrichment ratio" measurement="≤ 0.25"
mut=QAMN test_readout="enrichment ratio" measurement="≤ 0.25"
mut=AQVS test_readout="enrichment ratio" measurement=14
mut=AKSS test_readout="enrichment ratio" measurement=8.3
mut=AVSK test_readout="enrichment ratio" measurement=16.9
mut=MFMM test_readout="enrichment ratio" measurement="≤ 0.25"
mut=TEQS test_readout="enrichment ratio" measurement=7.71
